- method_notes: PubChem AID 504770
- condition_info: E. coli YBA685 rctB-dependent plasmid, OD600 growth, 3 h; active compounds read low
Out of some 130,000 compounds screened, about 350 (0.27%) were called active. The sample as a whole holds a higher share of actives than the screen did.
Listing: z-score of selected molecules

# molecule, z-score
records = [
    ("CC(Sc1nc(N)nc(N)n1)C(=O)NC1(C#N)CCCCC1 (stereo not given)", -0.4),
    ("Cc1ccccc1NC(=O)CSC(=O)c1ccccc1", 0.6),
    ("Cc1c(C(=O)NCc2ccc(OC(C)C)cc2)oc2ccc3c(c12)C=CC(C)(C)O3", 0.85),
    ("N#Cc1c(C(F)(F)F)cc(=O)[nH]c1S", -0.6),
    ("CCN(CC)S(=O)(=O)c1ccc(C(=O)NCCn2c(C)cc3ccccc32)cc1", 0.65),
    ("CS(=O)(=O)Nc1ccccc1C(=O)OCC(=O)NC1CC1", -0.75),
    ("CC(=O)NCc1n[nH]c(=O)c2ccccc12", -0.4),
    ("CC(C)CNC(=O)c1cc(-c2ccc(Br)cc2)on1", -0.2),
    ("O=c1c(/C=N\\O)coc2ccc(F)cc12", 1.15),
    ("OCc1nc(-c2ccccc2)cs1", -0.45),
]
